# method: In vivo PK study in male CD1 mice
# statedConditions: male, CD1, plasma, intravenous, 1 mg/kg; in vivo DMPK profile, mouse; read-out: Mouse CL
measureName: clearance (mL/min/kg)
State just the number; it will be interpreted in mL/min/kg.

molecule	resultUnit	readoutNumber
C[C@@H](CO)n1cnc2c(-c3cccnc3)nc(-c3ccc(C(F)(F)F)cn3)cc2c1=O [Compound 46]	mL/min/kg	1.8

// switching to the query molecule
Identify clearance associated with the molecule CC(C)(O)Cn1cnc2c(-c3cccnc3)nc(-c3ccc(C(F)(F)F)nc3)cc2c1=O [Compound 9]
3.4

----------
Listing of entries alongside the reported pIC50.
# targetSystem: AHR (Homo sapiens)
# Construct: other cell line with a DRE-luciferase reporter stably transfected; endogenous in cells
# Sequence (P35869 11-848): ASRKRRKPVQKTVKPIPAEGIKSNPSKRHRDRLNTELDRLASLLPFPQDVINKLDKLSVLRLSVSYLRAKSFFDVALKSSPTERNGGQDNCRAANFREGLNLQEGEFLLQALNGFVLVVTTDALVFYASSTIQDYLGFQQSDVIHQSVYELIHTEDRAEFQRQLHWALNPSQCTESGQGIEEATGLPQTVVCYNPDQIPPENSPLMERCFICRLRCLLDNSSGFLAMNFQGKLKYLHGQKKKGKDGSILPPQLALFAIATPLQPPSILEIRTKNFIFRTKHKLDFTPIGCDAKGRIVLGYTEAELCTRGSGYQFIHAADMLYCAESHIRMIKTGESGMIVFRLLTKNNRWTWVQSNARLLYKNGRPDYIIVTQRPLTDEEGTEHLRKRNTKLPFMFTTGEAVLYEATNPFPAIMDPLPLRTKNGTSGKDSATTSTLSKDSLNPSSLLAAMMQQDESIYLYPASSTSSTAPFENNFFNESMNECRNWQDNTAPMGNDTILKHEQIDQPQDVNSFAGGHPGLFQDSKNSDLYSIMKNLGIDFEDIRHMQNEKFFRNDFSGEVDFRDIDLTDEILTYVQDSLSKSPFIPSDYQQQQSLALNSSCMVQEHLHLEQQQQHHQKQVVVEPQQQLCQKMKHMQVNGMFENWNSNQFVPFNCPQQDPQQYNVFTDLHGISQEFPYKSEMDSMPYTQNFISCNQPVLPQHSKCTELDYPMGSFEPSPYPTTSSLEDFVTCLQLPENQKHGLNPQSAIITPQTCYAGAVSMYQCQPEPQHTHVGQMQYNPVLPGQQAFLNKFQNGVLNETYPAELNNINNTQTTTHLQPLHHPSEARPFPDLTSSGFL
# method: DRE-Luciferase Reporter Assay, HepG2 AhR-Lucia reporter cells
# statedConditions: with AHR activating ligand at EC50, read-out: HepG2-Luc IC50
pIC50: −log10 of the molar value.

Example entries and their recorded answers appear below.
molecule	measureName	result
CC(C)(O)Cn1cnc2c(-c3cn[nH]c3)nc(-c3ccc(C(F)(F)F)cn3)cc2c1=O	pIC50	> 7.00
C[C@@H](CO)n1cnc2c(C3=CCCN(C)C3)nc(-c3ccc(C(F)(F)F)nc3)cc2c1=O	pIC50	6.30 to 7.00
O=c1c2cc(-c3ccc(Cl)cc3)nc(-c3cccnc3)c2ncn1CC(O)C(F)(F)F (stereo not shown)	pIC50	> 7.00
Cn1cc(-c2cc3c(=O)n(CC(C)(C)O)cnc3c(-c3cnn(C)c3)n2)cn1	pIC50	< 6.30
C[C@@H](CO)n1cnc2c(-c3cnsc3)nc(-c3ccc(C(F)(F)F)nc3)cc2c1=O	pIC50	> 7.00
C[C@@H](CO)n1cnc2c(-c3cnn(C)c3)nc(-c3ccc(C4CC4)nc3)cc2c1=O	pIC50	> 7.00
C[C@@H](CO)n1cnc2c(-c3cnn(C)c3)nc(-c3cnc(C(F)(F)F)s3)cc2c1=O	pIC50	> 7.00
C[C@@H](CO)n1cnc2c(-c3ccc(C(F)(F)F)nc3)nc(-c3ccc(C(F)(F)F)nc3)cc2c1=O	pIC50	6.30 to 7.00
CC(C)(O)Cn1cnc2c(-c3cnsc3)nc(-c3ccc(C(F)(F)F)cn3)cc2c1=O	pIC50	> 7.00
Cn1cc(-c2nc(-c3ccc(Cl)cc3)cc3c(=O)n([C@H]4COC[C@@H]4O)cnc23)cn1	pIC50	> 7.00

Look up and state reported pIC50 for "C[C@@H](CO)n1cnc2c(-n3cccn3)nc(-c3ccc(C(F)(F)F)cn3)cc2c1=O"
6.30 to 7.00

In one line, give reported pIC50 of the entry "Cn1cc(-c2nc(-c3ccc(C(F)(F)F)nc3)cc3c(=O)n(C[C@H](O)C(F)(F)F)cnc23)cn1" .
> 7.00

Tell me pIC50 reported for "C[C@@H](CO)n1cnc2c(-c3cccnc3)nc(-c3cnc(C(F)(F)F)s3)cc2c1=O"
> 7.00

Give the reported value of pIC50 for this record: "C[C@@H](CO)n1cnc2c(-c3cnn(C)c3)nc(-c3cccnc3)cc2c1=O"
6.30 to 7.00

In one line, give reported pIC50 of the entry CN1CC(O)C(n2cnc3c(-c4cccnc4)nc(-c4ccc(Cl)cc4)cc3c2=O)C1 (stereo not shown) .
> 7.00

Provide pIC50 value for the following molecule: "O=c1c2cc(-c3ccc(C4CC4)nc3)nc(-c3cccnc3)c2ncn1C[C@H](O)C(F)(F)F"
> 7.00
